ASSAY_TEXT: BET inhibitor-based combinations targeting novel dependencies in MECOM-rearranged (r) AML: SET-2 cell line (AID 2202231); note: potency is the fitted concentration of half-maximal effect; nearly all actives have a fitted effect of over 35% in size
MEASUREMENT_PARAMETERS: SET-2 AML cells viability, CellTiter-Glo luminescence, 48 h
Inconclusive results are not listed. The source made the active and inactive calls. Calls come from the whole dose curve; as a rule, active = well fitted inhibition curve with a large enough effect; inconclusive = small, poorly fitted or top-dose-only effect; inactive = no such curve, though single readings can be large or run the other way.
ASSAY_ENDPOINT: Potency

1) O=C1Nc2nc(-c3c(O)cccc3OCC3CC3)cc([C@@H]3CCCNC3)c2CO1 ... 20900 nM (active)
2) CNCCn1c(=O)c2cc(OC)c(OC)cc2c2cnc3cc4c(cc3c21)OCO4 ... 24.1 nM (active)
3) Cc1cc(-c2cnn3c(NCC4CC(C)(O)C4)cc(Oc4cccnc4)nc23)ccc1C(=O)NC1CC1 (centres undefined) ... 1180 nM (active)

Record request: Potency value, item Cn1cc(CNCC2CCN(c3ncc(C(=O)NO)cn3)CC2)c2ccccc21
148 nM (active)

###

TARGET_DESC: Retinaldehyde dehydrogenase 3 (Homo sapiens) (UniProt P47895)
ASSAY_TEXT: qHTS for Inhibitors of the Aldehyde Dehydrogenase Family (ALDH1A3) Primary screen (AID 2061315)
MEASUREMENT_PARAMETERS: ALDH inhibition qHTS; series mostly up to 56 µM
Inconclusive results are not listed. The source made the active and inactive calls. The call rests on the fitted dose curve; in most records, active means well fitted inhibition curve with a large enough effect; inconclusive means small, poorly fitted or top-dose-only effect; inactive means no such curve, though single readings can be large or run the other way.
ASSAY_ENDPOINT: activity change, negative = inhibition

1) O=S(=O)(c1ccc2c(c1)OCCO2)N1CCN(S(=O)(=O)c2ccc3c(c2)OCCO3)CC1 ... inactive
2) O=C1C(F)N([S+](=O)([O-])c2ccc3c(c2)OCCO3)CCN1[S+](=O)([O-])c1c(F)cccc1F (configuration not stated) ... inactive
3) O=S(=O)(Nc1nccs1)c1ccc(Nc2nc(-c3ccccc3)cs2)cc1 ... inactive
4) CCCn1c(C)nc2c(N(C)CCN(C)C)nc(C)nc21 ... inactive

Hey, quick one: what's activity change, negative = inhibition for each of these?
1. COc1cc(O)c(C(CC(=O)N2CC(C)CC(C)C2)c2ccc(O)cc2)c(OC)c1 (configuration not stated)
2. O=S(=O)(c1ccc2ccccc2c1)N1CCN(S(=O)(=O)c2c(F)cccc2F)CC1
3. Cn1c(=O)c2c(ncn2CC2OCCO2)n(C)c1=O
4. O=C1NS(=O)(=O)c2cc(Cl)ccc21
5. COc1cccc(C2=Nn3c(nnc3-c3cccc(OC)c3OC)SC2)c1
6. COC(=O)c1ccc(O)c2ncc(N3CC[C@H](N)C3)cc12
7. N[C@@H](Cc1ccc(O[S+](=O)([O-])c2cccc3cnccc23)cc1)C(=O)N1CCN(c2ccccc2)CC1

1. inactive
2. inactive
3. inactive
4. inactive
5. inactive
6. inactive
7. inactive

Would you be so kind as to report activity change, negative = inhibition for each listed record?
1. OC(c1ccccc1)(c1ccccc1)c1cnc2ccccn12
2. Cn1nnnc1Sc1ncnc2scc(-c3cccc(F)c3)c12
3. Cc1ccc(OCCn2c(CCNC(=O)C3CC3)nc3ccccc32)cc1
4. CCn1cnc2c(Nc3ccc(CC(=O)N=C(N)N)cc3)nc(C#N)nc21
5. Cc1ccc(-c2cc(C(=O)Nc3ccn[nH]3)c3ccccc3n2)cc1C

inactive
inactive
inactive
inactive
inactive

###

ASSAY_TEXT: BET inhibitor-based combinations targeting novel dependencies in MECOM-rearranged (r) AML: AML-194 cell line (AID 2202237; note: potency is the fitted concentration of half-maximal effect; nearly all actives have a fitted effect of over 40% in size)
MEASUREMENT_PARAMETERS: AML-194 (MECOM-r AML) viability, CellTiter-Glo, 48 h; series mostly up to 46 µM
Results filed as inconclusive are left out. Activity calls are given as the source filed them. Calls follow the shape of the dose curve; as a rule, active = well fitted inhibition curve with a large enough effect; inconclusive = small, poorly fitted or top-dose-only effect; inactive = flat fitted curve, though single readings scatter.
ASSAY_ENDPOINT: Potency

1. O=C(NO)c1ccc(C2=Nc3ccccc3Oc3ccccc32)cc1 ... 4.68 µM (active)
2. CN(C)Cc1ccc(-c2nc3cccc4c3n2CCNC4=O)cc1 ... 23.5 µM (active)
3. O=C(Nc1cn[nH]c1-c1nc2ccc(CN3CCOCC3)cc2[nH]1)NC1CC1 ... 2.09 µM (active)

Which Potency is listed for Cc1cc(-c2cnn3c(NCC4CC(C)(O)C4)cc(Oc4cccnc4)nc23)ccc1C(=O)NC1CC1 (stereo not given) ?
1.05 µM (active)
